Test system: U118MG
protocol.summary: Complementary DBM in vitro profiling: U118MG (CNS Cancer)
Type: cell-based
settings: read-out: LC50 (the source's name)
parameter: CC50

compound: COc1ccccc1Nc1nc(-c2cc3cccc(N)c3oc2=O)cs1 [Compound DBM 228]
meas.value: > 30 µM

---

Test system: HOP-92
protocol.summary: NCI 60 panel: HOP-92 (Non-Small Cell Lung Cancer)
Format: cell-based
settings: read-out: LC50 (the source's name)
parameter: CC50

compound.smiles: COc1ccccc1Nc1nc(-c2cc3cccc(N)c3oc2=O)cs1
meas.value: > 100 µM

---

Tested on: U266
protocol.summary: Complementary DBM in vitro profiling: U266 (Hematologic Cancer)
Assay type: cell-based
settings: read-out: LC50 (the source's name)

compound.smiles: COc1ccccc1Nc1nc(-c2cc3cccc(N)c3oc2=O)cs1
CC50 [nM]: 161

---

Test system: NCI/ADR-RES
parameter: CC50

compound: COc1ccccc1Nc1nc(-c2cc3cccc(N)c3oc2=O)cs1 [Compound DBM 228]
meas.value: > 100 µM

---

System: T98G
protocol.summary: Complementary DBM in vitro profiling: T98G (CNS Cancer)
Format: cell-based
settings: read-out: LC50 (the source's name)

compound.smiles: COc1ccccc1Nc1nc(-c2cc3cccc(N)c3oc2=O)cs1
CC50 [µM]: 17.6

---

Test system: LOX IMVI
protocol.summary: NCI 60 panel: LOX IMVI (Melanoma)
Format: cell-based
settings: read-out: LC50 (the source's name)

molecule: COc1ccccc1Nc1nc(-c2cc3cccc(N)c3oc2=O)cs1 [Compound DBM 228]
CC50: > 100 µM

---

Test system: OVCAR-4
protocol.summary: NCI 60 panel: OVCAR-4 (Ovarian Cancer)
Assay type: cell-based
settings: read-out: LC50 (the source's name)

compound.smiles: COc1ccccc1Nc1nc(-c2cc3cccc(N)c3oc2=O)cs1
tgt: OVCAR-4
CC50: > 100 µM

---

Test system: NCI-H23
protocol.summary: NCI 60 panel: NCI-H23 (Non-Small Cell Lung Cancer)
Assay type: cell-based
settings: read-out: LC50 (the source's name)

compound.smiles: COc1ccccc1Nc1nc(-c2cc3cccc(N)c3oc2=O)cs1
CC50 (µM): 63.1

---

Test system: MDA-MB-231
protocol.summary: NCI 60 panel: MDA-MB-231 (Breast Cancer)
Format: cell-based
settings: read-out: LC50 (the source's name)

compound.smiles: COc1ccccc1Nc1nc(-c2cc3cccc(N)c3oc2=O)cs1
CC50: > 100 µM

---

Tested on: NCI/ADR-RES
settings: read-out: potency in the NCI-ADR/RES cell line; multi-drug resistant NCI-ADR/RES
pIC50: −log10 of the molar value.
parameter: pIC50

compound.smiles: COc1ccccc1Nc1nc(-c2cc3cccc(N)c3oc2=O)cs1
tgt: NCI/ADR-RES
meas.value: 7.35
--
compound.smiles: COc1ccccc1Nc1nc(-c2cc3cccc([N+](=O)[O-])c3oc2=O)cs1
tgt: NCI/ADR-RES
meas.value: 7.00

Just for reference, patent US10369145B2 is where these values come from.
